We begin with a simple list: items and their reported activity change, negative = inhibition.
- ASSAY_METHOD_TEXT: AP1 Signaling Pathway (AID 357);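 note: ME-180 reporter cells stimulated with EGF at its EC50 level; % is set by controls: 0 for no effect and ±100 for the full control effect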
- CONDITIONS: ME-180 (cervical carcinoma) AP-1-bla reporter, EGF-induced, beta-lactamase ratio, 5 h; at 7.69 µM (top of the series) unless noted
Results filed as inconclusive are left out. Active and inactive are the calls of the source. Calls come from the whole dose curve; as a rule, active = well fitted curve in either direction with a large enough effect (not every such curve was filed as active); inconclusive = small, poorly fitted or top-dose-only effect, or another doubt; inactive = flat fitted curve, though single readings scatter.

CHEMICAL_STRUCTURE	activity change, negative = inhibition
COc1ccccc1CNc1ccnc(-c2ccc3c(c2)OCO3)n1	-17.7% (inactive)
O=c1c(CCc2ccccc2)nc2cnc(N3CCNCC3)nc2n1C1CC1	-9.21% (inactive)
c1cncc(-c2cncnc2NC2CCNCC2)c1	11.1% (inactive)
Cc1nc2cnc(Oc3cccc(Cl)c3)nc2n(CCC#N)c1=O	-16% (inactive)
CCNc1ncc2nc(CCc3ccccc3)c(=O)n(CCOC)c2n1	0.721% (inactive)
O=c1c(-c2ccc(F)cc2)nc2cnc(N3CCNCC3)nc2n1Cc1ccc(F)cc1	115% [activator] (active)
Cn1c(=O)c(-c2cccs2)nc2cnc(N3CCOCC3)nc21	-14% (inactive)
CCNc1ncc2nc(-c3ccc(Cl)cc3)c(=O)n(CCC#N)c2n1	8.5% (inactive)
Cn1c(=O)cnc2cnc(Oc3ccccc3)nc21	5.77% (inactive)
Fc1ccc(Nc2ncncc2-c2ccoc2)cc1	-7.98% (inactive)
COc1ccccc1-c1cncnc1NCCc1cnc[nH]1	1.24% (inactive)
CC(C)=CCc1c2c(c3occ(-c4ccc(O)c(O)c4)c(=O)c3c1O)C=CC(C)(C)O2	-0.16% (inactive)
O=c1c(CCc2ccccc2)nc2cncnc2n1Cc1ccc(F)cc1	-7.12% (inactive)
COCCNc1ncncc1-c1ccccc1OC	0.174% (inactive)
COc1ccccc1CN1CC2(CCN(C(=O)c3cnccn3)CC2)C1	2.43% (inactive)
C[C@@]12C(=O)OC(=O)[C@]1(C)[C@H]1CC[C@@H]2O1	-102% [at 17.2 µM] (active)
Cc1noc(C)c1C(=O)N1CCC2(CCN(C(=O)NC(C)C)CC2)CC1	-3.73% (inactive)
O=c1c(-c2cc(F)cc(F)c2)nc2cnc(N3CCOCC3)nc2n1C[C@H]1CCCO1	10.4% (inactive)
O=C(c1ccncc1)N1CCC[C@@]2(CCN(c3ccccn3)C2)C1	-20.6% (inactive)
O=C(Cc1ccc(Cl)c(Cl)c1)OCCN1CCCC1	17.4% [at 38 µM] (inactive)
COc1ccc(Oc2ncc3nc(-c4cccs4)c(=O)n(CCC#N)c3n2)cc1	-1.5% (inactive)
Cn1c(=O)c(-c2ccc(Cl)cc2)nc2cnc(Oc3cccc(Cl)c3)nc21	-7.62% (inactive)
CCNc1ncc2nc(-c3cn(C)c4ccccc34)c(=O)n(Cc3cccc(OC)c3)c2n1	0.603% (inactive)

----------
- SYSTEM_NAME: Ferritin light chain (Equus caballus)
- ASSAY_METHOD_TEXT: qHTS Validation Assay for Identification of Novel General Anesthetics (AID 2323); note: % is set by controls: 0 for no effect and ±100 for the full control effect
- CONDITIONS: horse apoferritin, anesthetic-site fluorescent probe displacement; series mostly up to 76.9 µM
Records with an inconclusive call do not appear. Activity calls are given as the source filed them. Calls follow the shape of the dose curve; as a rule, active = well fitted curve in the direction sought with a large enough effect; inconclusive = small, poorly fitted or top-dose-only effect, or another doubt; inactive = no such curve, though single readings can be large or run the other way.

COMPOUND	SYSTEM_NAME	outcome
CC(=O)[C@@]1(O)CC[C@H]2C3CCC4=CC(=O)CC[C@]4(C)C3CC[C@@]21C (stereo not given in full)	Ferritin light chain (Equus caballus)	inactive
CSc1nc(N)c2ncn([C@@H]3O[C@H](COP(=O)(O)OP(=O)(O)OP(=O)(O)O)[C@H](O)[C@H]3O)c2n1	Ferritin light chain (Equus caballus)	inactive
COc1cc(=O)n(C)c2c(OCC(O)C(C)(C)O)cccc12 (stereo not given)	Ferritin light chain (Equus caballus)	inactive
COc1cc2c(cc1OC)C(c1ccccc1)CN(C)CC2 (stereo not given)	Ferritin light chain (Equus caballus)	inactive
NC(=S)NCCCC(N)C(=O)O (stereo not given)	Ferritin light chain (Equus caballus)	inactive

----------
- ASSAY_METHOD_TEXT: qHTS assay for small molecule disruptors of mitochondrial membrane potential screened against the NCATS CANVASS Library (AID 1347389); note: nearly all actives have a fitted effect of over 60% in size; note: potency is the fitted concentration of half-maximal effect
- CONDITIONS: HepG2 mitochondrial membrane potential, m-MPI red/green ratio, 1.5 h; series mostly up to 46.1 µM
Inconclusive results are not listed. Activity calls are given as the source filed them. The call rests on the fitted dose curve; in most records, active means well fitted inhibition curve with a large enough effect; inconclusive means small, poorly fitted or top-dose-only effect; inactive means flat fitted curve, though single readings scatter.

MOLECULE	Potency
O=C1c2c(O)cc(O)cc2OC(c2ccc(O)cc2)C1O (stereo not drawn)	11.7 µM (active)
CC(=O)N[C@H](C)c1nc(/C=C/C=C/C(=O)CC2CC(=O)CC[C@]2(C)O)cs1 (stereo partly drawn)	inactive
C/C=C(/C)c1c(Cl)c(OC)c(C)c2c1Oc1c(Cl)c(O)c(Cl)c(C)c1C(=O)O2	2.63 µM (active)
C/C(=C\[C@H](C)C(=O)/C=C/CC1CC(=O)NC(=O)C1)[C@@H]1OC(=O)CCCC/C=C/[C@H](O)[C@@H](O)[C@@H]1C	inactive
C[C@]12CCC[C@](C)(C(=O)O)[C@@H]1CC[C@@]1(C)c3cocc3CC[C@H]21	inactive
C=C[C@@]1(C)CC[C@@H]([C@H](C)C(=O)/C=C/C(C)(C)O)O1	inactive
C=C1[C@@]2(C)CC3C4(C)CCC(O)C(C)(C)C4CCC3(C)[C@]1(C(=O)OC)C(=O)C(C)(O)C2=O (stereo partly drawn)	inactive
C[C@]12CC[C@]3(C1)[C@H](CC2=O)C[C@@H](OC(=O)c1ccccc1)[C@H]1[C@](C)(C(=O)O)CCC[C@@]13C	inactive

----------
- SYSTEM_NAME: Cytochrome P450 1A2 (Homo sapiens) (UniProt P05177)
- Sequence (P05177 whole entry, looked up): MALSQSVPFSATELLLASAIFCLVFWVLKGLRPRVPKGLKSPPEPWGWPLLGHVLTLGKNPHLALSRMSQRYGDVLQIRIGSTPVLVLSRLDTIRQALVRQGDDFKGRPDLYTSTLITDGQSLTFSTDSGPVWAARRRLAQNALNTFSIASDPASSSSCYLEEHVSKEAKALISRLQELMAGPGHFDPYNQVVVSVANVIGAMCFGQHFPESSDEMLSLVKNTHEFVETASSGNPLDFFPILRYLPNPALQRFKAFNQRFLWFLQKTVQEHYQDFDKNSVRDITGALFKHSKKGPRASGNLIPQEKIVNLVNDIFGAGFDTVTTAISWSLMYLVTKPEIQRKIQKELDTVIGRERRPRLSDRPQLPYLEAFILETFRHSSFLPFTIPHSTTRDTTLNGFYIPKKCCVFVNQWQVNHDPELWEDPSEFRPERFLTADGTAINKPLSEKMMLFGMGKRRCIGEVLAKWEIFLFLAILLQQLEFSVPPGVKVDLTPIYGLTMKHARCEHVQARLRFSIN
- ASSAY_METHOD_TEXT: p450-cyp1a2 (AID 410); note: potency is the fitted concentration of half-maximal effect
- CONDITIONS: recombinant CYP1A2, luciferin-ME demethylation, luminescence; series mostly up to 57 µM
Inconclusive results are not listed. Activity calls are given as the source filed them. Calls come from the whole dose curve.
REPORTED_ENDPOINT: Potency

CHEMICAL_STRUCTURE	SYSTEM_NAME	VALUE
CC(C)NC(=O)N1CCCC2(CCN(S(=O)(=O)c3ccccc3)CC2)C1	Cytochrome P450 1A2 (Homo sapiens) (UniProt P05177)	inactive
O=C(Nc1ccccc1)N1CCC2(CC1)CCN(S(=O)(=O)c1ccccc1)CC2	Cytochrome P450 1A2 (Homo sapiens) (UniProt P05177)	7.94 µM (active)
O=c1c(-c2cccs2)nc2cncnc2n1Cc1ccccc1	Cytochrome P450 1A2 (Homo sapiens) (UniProt P05177)	2.51 µM (active)
c1cncc(CNc2ccnc(-c3ccc4c(c3)OCO4)n2)c1	Cytochrome P450 1A2 (Homo sapiens) (UniProt P05177)	0.126 µM (active)
N#CCCn1c(=O)c(-c2cccc(C#N)c2)nc2cnc(N3CCOCC3)nc21	Cytochrome P450 1A2 (Homo sapiens) (UniProt P05177)	15.8 µM (active)
COc1ccccc1CNc1ccnc(-c2ccc3c(c2)OCO3)n1	Cytochrome P450 1A2 (Homo sapiens) (UniProt P05177)	0.631 µM (active)
FC(F)(F)c1ccccc1-c1nc(N2CCNCC2)c2ccccc2n1	Cytochrome P450 1A2 (Homo sapiens) (UniProt P05177)	10 µM (active)
CN1CCN(c2ncncc2-c2ccc(C(=O)N(C)C)cc2)CC1	Cytochrome P450 1A2 (Homo sapiens) (UniProt P05177)	15.8 µM (active)
CN(C)c1ccc(-c2nc(NCCN3CCOCC3)c3ccccc3n2)cc1	Cytochrome P450 1A2 (Homo sapiens) (UniProt P05177)	7.94 µM (active)
N#Cc1cccc(NC(=O)N2CCC3(CC2)CCN(C(=O)c2ccco2)CC3)c1	Cytochrome P450 1A2 (Homo sapiens) (UniProt P05177)	inactive
O=c1c(-c2ccc(F)cc2)nc2cnc(N3CCNCC3)nc2n1C1CC1	Cytochrome P450 1A2 (Homo sapiens) (UniProt P05177)	2.51 µM (active)
O=C(c1csnn1)N1CCC2(CC1)CCN(c1ncccn1)CC2	Cytochrome P450 1A2 (Homo sapiens) (UniProt P05177)	inactive
COc1ccccc1CNc1ncnc2ccc(-c3ccccc3CN(C)C)cc12	Cytochrome P450 1A2 (Homo sapiens) (UniProt P05177)	15.8 µM (active)
O=C(c1ccco1)N1CCC2(CCCN(C(c3ccccc3)c3ccccc3)C2)CC1	Cytochrome P450 1A2 (Homo sapiens) (UniProt P05177)	15.8 µM (active)
Cc1cccc(CNc2ccnc(-c3cccnc3)n2)c1	Cytochrome P450 1A2 (Homo sapiens) (UniProt P05177)	0.126 µM (active)
Cc1cccc(CNc2cc(-c3ccccc3CN(C)C)ncn2)c1	Cytochrome P450 1A2 (Homo sapiens) (UniProt P05177)	25.1 µM (active)
COCCn1c(=O)cnc2cnc(Oc3ccc(OC)cc3)nc21	Cytochrome P450 1A2 (Homo sapiens) (UniProt P05177)	5.01 µM (active)
CCNc1ncc2nc(C)c(=O)n(Cc3ccc(F)cc3)c2n1	Cytochrome P450 1A2 (Homo sapiens) (UniProt P05177)	1.58 µM (active)
COc1ccccc1-c1cncnc1NCCNC(C)=O	Cytochrome P450 1A2 (Homo sapiens) (UniProt P05177)	inactive
COCC(=O)N1CCC[C@@]2(CCN(C(=O)Nc3ccc(OC)cc3)C2)C1	Cytochrome P450 1A2 (Homo sapiens) (UniProt P05177)	inactive
O=C(c1cccc(F)c1)N1CCC[C@@]2(CCN(Cc3nccs3)C2)C1	Cytochrome P450 1A2 (Homo sapiens) (UniProt P05177)	12.6 µM (active)
Cc1noc(C)c1C(=O)N1CCC2(CC1)CN(c1ncccn1)C2	Cytochrome P450 1A2 (Homo sapiens) (UniProt P05177)	inactive
COc1ccccc1-c1cncnc1-n1ccnc1	Cytochrome P450 1A2 (Homo sapiens) (UniProt P05177)	12.6 µM (active)
COc1cccc(Nc2ncc3nc(C)c(=O)n(Cc4cccs4)c3n2)c1	Cytochrome P450 1A2 (Homo sapiens) (UniProt P05177)	2.51 µM (active)
Cc1noc(C)c1-c1ccc2ncnc(Nc3ccc(F)cc3)c2c1	Cytochrome P450 1A2 (Homo sapiens) (UniProt P05177)	3.98 µM (active)
COc1ccccc1CN1CC2(CCN(S(C)(=O)=O)CC2)C1	Cytochrome P450 1A2 (Homo sapiens) (UniProt P05177)	inactive
COC(=O)N1CCC2(CC1)CN(c1cccc(-c3ccccc3)c1)C2	Cytochrome P450 1A2 (Homo sapiens) (UniProt P05177)	inactive
COCCn1c(=O)c(-c2ccc(OC)cc2)nc2cnc(N3CCNCC3)nc21	Cytochrome P450 1A2 (Homo sapiens) (UniProt P05177)	6.31 µM (active)
Cc1nc2cnc(N(C)C)nc2n(CCC#N)c1=O	Cytochrome P450 1A2 (Homo sapiens) (UniProt P05177)	10 µM (active)
COc1ccc2[nH]cc(CCNc3ncncc3-c3ccc(N(C)C)cc3)c2c1	Cytochrome P450 1A2 (Homo sapiens) (UniProt P05177)	0.251 µM (active)
COC(=O)N1CCC[C@@]2(CCN(C(c3ccccc3)c3ccccc3)C2)C1	Cytochrome P450 1A2 (Homo sapiens) (UniProt P05177)	12.6 µM (active)
Cc1ccccc1-c1cncnc1NCc1ccccc1	Cytochrome P450 1A2 (Homo sapiens) (UniProt P05177)	12.6 µM (active)
CN1CCN(c2ncc3nc(-c4cccs4)c(=O)n(-c4ccccc4)c3n2)CC1	Cytochrome P450 1A2 (Homo sapiens) (UniProt P05177)	3.16 µM (active)
Cc1noc(C)c1-c1nccc(N2CCOCC2)n1	Cytochrome P450 1A2 (Homo sapiens) (UniProt P05177)	0.631 µM (active)
CS(=O)(=O)N1CCC2(CC1)CN(Cc1cc(C(F)(F)F)cc(C(F)(F)F)c1)C2	Cytochrome P450 1A2 (Homo sapiens) (UniProt P05177)	inactive
N#CCCn1c(=O)c(CCc2ccccc2)nc2cnc(OCc3ccccc3)nc21	Cytochrome P450 1A2 (Homo sapiens) (UniProt P05177)	12.6 µM (active)
CN(C)c1ccnc(-c2cccc(NS(C)(=O)=O)c2)n1	Cytochrome P450 1A2 (Homo sapiens) (UniProt P05177)	1.58 µM (active)
COc1ccc(NC(=O)N2CC3(CCN(C(=O)c4c(C)noc4C)CC3)C2)cc1	Cytochrome P450 1A2 (Homo sapiens) (UniProt P05177)	inactive
c1ccc2c(N3CCNCC3)nc(-c3ccc4c(c3)OCO4)nc2c1	Cytochrome P450 1A2 (Homo sapiens) (UniProt P05177)	12.6 µM (active)
O=C(c1ccco1)N1CCC[C@@]2(CCN(Cc3ccccc3)C2)C1	Cytochrome P450 1A2 (Homo sapiens) (UniProt P05177)	inactive
CCNc1ncc2ncc(=O)n(C3CC3)c2n1	Cytochrome P450 1A2 (Homo sapiens) (UniProt P05177)	3.16 µM (active)
COc1ccc(-n2c(=O)c(-c3cccs3)nc3cncnc32)cc1	Cytochrome P450 1A2 (Homo sapiens) (UniProt P05177)	10 µM (active)
CCNc1ncc2nc(C)c(=O)n(C)c2n1	Cytochrome P450 1A2 (Homo sapiens) (UniProt P05177)	5.01 µM (active)
COc1ccc(-c2nc3cnc(N4CCNCC4)nc3n(Cc3cccs3)c2=O)cc1	Cytochrome P450 1A2 (Homo sapiens) (UniProt P05177)	3.98 µM (active)
CN1CCN(c2ncc3nc(-c4cccs4)c(=O)n(CCC#N)c3n2)CC1	Cytochrome P450 1A2 (Homo sapiens) (UniProt P05177)	15.8 µM (active)
COc1ccc(Oc2ncc3nc(C)c(=O)n(C[C@H]4CCCO4)c3n2)cc1	Cytochrome P450 1A2 (Homo sapiens) (UniProt P05177)	12.6 µM (active)

All figures here come from PubChem BioAssay (NCATS).
